Data origin: patent US11306064B2

# pIC50 per entry
Target: Human ASBT (Homo sapiens, UniProt Q12908)
Construct: kept under Puromycin selection
Sequence (Q12908 whole entry): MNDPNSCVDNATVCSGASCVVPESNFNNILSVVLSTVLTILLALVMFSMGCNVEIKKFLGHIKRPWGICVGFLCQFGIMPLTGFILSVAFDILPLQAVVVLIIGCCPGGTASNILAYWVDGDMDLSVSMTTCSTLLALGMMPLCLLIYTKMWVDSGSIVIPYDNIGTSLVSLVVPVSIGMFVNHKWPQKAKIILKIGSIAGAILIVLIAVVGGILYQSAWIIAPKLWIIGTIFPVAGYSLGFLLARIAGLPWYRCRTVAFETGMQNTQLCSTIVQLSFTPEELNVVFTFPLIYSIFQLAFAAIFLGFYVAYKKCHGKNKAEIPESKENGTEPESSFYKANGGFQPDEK
Test: ASBT (h/m) assay: 3H-taurocholic acid uptake in human ASBT-overexpressing cells
Conditions: 0.25 μM 3H-taurocholic acid and 5 μM cold taurocholic acid, 20 minutes, read-out: hASBT IC50
pIC50: −log10 of the molar value.
PROPERTY NAME: pIC50

COMPOUND: CCCCC1(CCCC)CN(c2ccc(C(=O)NC(C)(C)C)cc2)c2cc(SC)c(O/C=C(\F)C(=O)O)cc2S(=O)(=O)C1 [Example 79]
SUBJECT OF TEST: Human ASBT (Homo sapiens, UniProt Q12908)
PROPERTY NAME: pIC50
INEQUALITY OPERATOR: <
OBSERVED MEASUREMENT: 6.00
--
COMPOUND: CCCCC1(CCCC)CN(c2ccccc2)c2cc(SC)c(O/C=C(\F)C(=O)O)cc2S(=O)(=O)C1 [Example 11]
SUBJECT OF TEST: Human ASBT (Homo sapiens, UniProt Q12908)
PROPERTY NAME: pIC50
INEQUALITY OPERATOR: =
OBSERVED MEASUREMENT: 7.32
--
COMPOUND: CCCCC1(CC)CN(c2ccccc2)c2cc(Cl)c(O/C=C(\F)C(=O)O)cc2S(=O)(=O)C1 (single isomer, unassigned) [Example 48]
SUBJECT OF TEST: Human ASBT (Homo sapiens, UniProt Q12908)
PROPERTY NAME: pIC50
INEQUALITY OPERATOR: =
OBSERVED MEASUREMENT: 7.38
--
COMPOUND: CCCCC1(CC)CN(c2ccccc2)c2cc(SC)c(O/C=C(\F)C(=O)O)cc2S(=O)(=O)C1 (single isomer, unassigned) [Example 42]
SUBJECT OF TEST: Human ASBT (Homo sapiens, UniProt Q12908)
PROPERTY NAME: pIC50
INEQUALITY OPERATOR: =
OBSERVED MEASUREMENT: 6.66
--
COMPOUND: CCCCC1(CC)CN(c2ccccc2)c2cc(Cl)c(O/C=C/C(=O)O)cc2S(=O)(=O)C1 (single isomer, unassigned) [Example 50]
SUBJECT OF TEST: Human ASBT (Homo sapiens, UniProt Q12908)
PROPERTY NAME: pIC50
INEQUALITY OPERATOR: =
OBSERVED MEASUREMENT: 7.11
--
COMPOUND: CCCCC1(CC)CN(c2ccccc2)c2cc(SC)c(O/C=C(\F)C(=O)O)cc2S(=O)(=O)C1 (racemic) [Example 41]
SUBJECT OF TEST: Human ASBT (Homo sapiens, UniProt Q12908)
PROPERTY NAME: pIC50
INEQUALITY OPERATOR: =
OBSERVED MEASUREMENT: 7.59
--
COMPOUND: CCCCC1(CCCC)CN(c2ccc(N(C)C)cc2)c2cc(SC)c(O/C=C/C(=O)O)cc2S(=O)(=O)C1 [Example 25]
SUBJECT OF TEST: Human ASBT (Homo sapiens, UniProt Q12908)
PROPERTY NAME: pIC50
INEQUALITY OPERATOR: =
OBSERVED MEASUREMENT: 6.43
--
COMPOUND: CCCCC1(CC)CN(c2ccccc2)c2cc(Br)c(O/C=C(\F)C(=O)O)cc2S(=O)(=O)N1C (stereo not drawn) [Example 106]
SUBJECT OF TEST: Human ASBT (Homo sapiens, UniProt Q12908)
PROPERTY NAME: pIC50
INEQUALITY OPERATOR: =
OBSERVED MEASUREMENT: 6.17
--
COMPOUND: CCCCC1(CC)CN(c2ccccc2)c2cc(SC)c(O/C=C(\F)C(=O)O)cc2S(=O)(=O)N1C (racemic) [Example 98]
SUBJECT OF TEST: Human ASBT (Homo sapiens, UniProt Q12908)
PROPERTY NAME: pIC50
INEQUALITY OPERATOR: =
OBSERVED MEASUREMENT: 6.54
--
COMPOUND: CCCCC1(CC)CN(c2ccccc2)c2cc(Br)c(O/C=C/C(=O)O)cc2S(=O)(=O)C1 (single isomer, unassigned) [Example 5]
SUBJECT OF TEST: Human ASBT (Homo sapiens, UniProt Q12908)
PROPERTY NAME: pIC50
INEQUALITY OPERATOR: =
OBSERVED MEASUREMENT: 5.91
--
COMPOUND: CCCCC1(CC)CN(c2ccccc2)c2ccc(O/C=C/C(=O)O)cc2S(=O)(=O)C1 (stereo not drawn) [Example 21]
SUBJECT OF TEST: Human ASBT (Homo sapiens, UniProt Q12908)
PROPERTY NAME: pIC50
INEQUALITY OPERATOR: =
OBSERVED MEASUREMENT: 6.03
--
COMPOUND: CCCCC1(CC)CN(c2ccccc2)c2cc(N(C)C)c(O/C=C(\F)C(=O)O)cc2S(=O)(=O)C1 (stereo not drawn) [Example 108]
SUBJECT OF TEST: Human ASBT (Homo sapiens, UniProt Q12908)
PROPERTY NAME: pIC50
INEQUALITY OPERATOR: =
OBSERVED MEASUREMENT: 8.07
--
COMPOUND: CCCCC1(CC)CN(c2ccccc2)c2cc(Cl)c(O/C=C/C(=O)O)cc2S(=O)(=O)C1 (racemic) [Example 49]
SUBJECT OF TEST: Human ASBT (Homo sapiens, UniProt Q12908)
PROPERTY NAME: pIC50
INEQUALITY OPERATOR: =
OBSERVED MEASUREMENT: 6.66
--
COMPOUND: CCCCC1(CCCC)CN(c2ccccc2)c2cc(CC)c(O/C=C/C(=O)O)cc2S(=O)(=O)C1 [Example 12]
SUBJECT OF TEST: Human ASBT (Homo sapiens, UniProt Q12908)
PROPERTY NAME: pIC50
INEQUALITY OPERATOR: =
OBSERVED MEASUREMENT: 6.32
--
COMPOUND: CCCCC1(CCCC)CN(c2ccc(C(=O)N(C)C)cc2)c2cc(SC)c(O/C=C(\F)C(=O)O)cc2S(=O)(=O)C1 [Example 104]
SUBJECT OF TEST: Human ASBT (Homo sapiens, UniProt Q12908)
PROPERTY NAME: pIC50
INEQUALITY OPERATOR: =
OBSERVED MEASUREMENT: 5.48

----------
Target: Human LBAT (Homo sapiens)
Construct: kept under Geneticin selection
Sequence (Q14973 whole entry): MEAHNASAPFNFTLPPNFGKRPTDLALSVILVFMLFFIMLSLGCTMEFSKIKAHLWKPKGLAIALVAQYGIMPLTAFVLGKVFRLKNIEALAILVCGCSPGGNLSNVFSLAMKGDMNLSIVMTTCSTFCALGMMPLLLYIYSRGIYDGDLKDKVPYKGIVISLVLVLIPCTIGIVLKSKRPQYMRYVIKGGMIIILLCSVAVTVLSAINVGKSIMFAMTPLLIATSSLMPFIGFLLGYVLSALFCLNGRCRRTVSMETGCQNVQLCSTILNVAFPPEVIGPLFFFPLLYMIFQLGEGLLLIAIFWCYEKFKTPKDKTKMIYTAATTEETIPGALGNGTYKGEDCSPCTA
Experiment: LBAT (h/m) assay: 3H-taurocholic acid uptake in human LBAT-overexpressing cells
Conditions: 0.3 μM 3H-taurocholic acid and 7.5 μM cold taurocholic acid, 20 minutes, read-out: hLBAT IC50
PROPERTY NAME: IC50 (nM)

MOLECULE: CCCCC1(CC)CN(c2ccccc2)c2cc(NC)c(O/C=C/C(=O)O)cc2S(=O)(=O)C1 (racemic) [Example 91]
OBSERVED MEASUREMENT: 1300
//
MOLECULE: CCCCC1(CC)CN(c2ccc(NC(=O)C3CCCC3)cc2)c2cc(SC)c(O/C=C/C(=O)O)cc2S(=O)(=O)C1 (centres unmarked) [Example 38]
OBSERVED MEASUREMENT: 122
//
MOLECULE: CCCCC1(CCCC)CN(c2ccc(C(=O)NC(C)(C)C)cc2)c2cc(SC)c(O/C=C/C(=O)O)cc2S(=O)(=O)C1 [Example 68]
OBSERVED MEASUREMENT: 130
//
MOLECULE: CCCCC1(CCCC)CN(c2ccc(NC(=O)C3CCCC3)cc2)c2cc(SC)c(O/C=C(\F)C(=O)O)cc2S(=O)(=O)C1 [Example 35]
OBSERVED MEASUREMENT: 66
//
MOLECULE: CCC1(CC)CN(c2ccccc2)c2cc(SC)c(O/C=C(\F)C(=O)O)cc2S(=O)(=O)C1 [Example 44]
OBSERVED MEASUREMENT: 9.1
//
MOLECULE: CCCCC1(CC)CN(c2ccccc2)c2cc(I)c(O/C=C/C(=O)O)cc2S(=O)(=O)C1 (single isomer, unassigned) [Example 57]
OBSERVED MEASUREMENT: 137
//
MOLECULE: CCCCC1(CCCC)CN(c2ccccc2)c2cc(SCC)c(O/C=C/C(=O)O)cc2S(=O)(=O)C1 [Example 67]
OBSERVED MEASUREMENT: 461
//
MOLECULE: CCCCC1(CC)CN(c2ccccc2)c2cc(SCC)c(O/C=C/C(=O)O)cc2S(=O)(=O)C1 (centres unmarked) [Example 73]
OBSERVED MEASUREMENT: 120
//
MOLECULE: CCCCC1(CC)CN(c2ccccc2)c2cc(Cl)c(O/C=C(\F)C(=O)O)cc2S(=O)(=O)C1 (racemic) [Example 46]
OBSERVED MEASUREMENT: 24
//
MOLECULE: CCCCC1(CCCC)CN(c2ccc(NS(C)(=O)=O)cc2)c2cc(SC)c(O/C=C/C(=O)O)cc2S(=O)(=O)C1 [Example 10]
OBSERVED MEASUREMENT: 3980
//
MOLECULE: CCCCC1(CC)CN(c2ccccc2)c2cc(SC)c(O/C=C/C(=O)O)cc2S(=O)(=O)N1C (racemic) [Example 88]
OBSERVED MEASUREMENT: 70
//
MOLECULE: CCCCC1(CC)CN(c2ccccc2)c2cc(SC)c(O/C=C(\F)C(=O)O)cc2S(=O)(=O)N1 (racemic) [Example 84]
OBSERVED MEASUREMENT: 31
//
MOLECULE: CCCCC1(CCCC)CN(c2ccc(Br)cc2)c2cc(SC)c(O/C=C(\F)C(=O)O)cc2S(=O)(=O)C1 [Example 94]
OBSERVED MEASUREMENT: 96
//
MOLECULE: CCC1(CC)CN(c2ccccc2)c2cc(I)c(O/C=C/C(=O)O)cc2S(=O)(=O)C1 [Example 54]
OBSERVED MEASUREMENT: 100
